Biological target: T1, monkey C5-mmh (monkey, UniProt P01031 19-1676 (human entry), limits assumed)
T1 construct: recombinant, with C-terminal myc-myc-hexahistidine tag
T1 chain: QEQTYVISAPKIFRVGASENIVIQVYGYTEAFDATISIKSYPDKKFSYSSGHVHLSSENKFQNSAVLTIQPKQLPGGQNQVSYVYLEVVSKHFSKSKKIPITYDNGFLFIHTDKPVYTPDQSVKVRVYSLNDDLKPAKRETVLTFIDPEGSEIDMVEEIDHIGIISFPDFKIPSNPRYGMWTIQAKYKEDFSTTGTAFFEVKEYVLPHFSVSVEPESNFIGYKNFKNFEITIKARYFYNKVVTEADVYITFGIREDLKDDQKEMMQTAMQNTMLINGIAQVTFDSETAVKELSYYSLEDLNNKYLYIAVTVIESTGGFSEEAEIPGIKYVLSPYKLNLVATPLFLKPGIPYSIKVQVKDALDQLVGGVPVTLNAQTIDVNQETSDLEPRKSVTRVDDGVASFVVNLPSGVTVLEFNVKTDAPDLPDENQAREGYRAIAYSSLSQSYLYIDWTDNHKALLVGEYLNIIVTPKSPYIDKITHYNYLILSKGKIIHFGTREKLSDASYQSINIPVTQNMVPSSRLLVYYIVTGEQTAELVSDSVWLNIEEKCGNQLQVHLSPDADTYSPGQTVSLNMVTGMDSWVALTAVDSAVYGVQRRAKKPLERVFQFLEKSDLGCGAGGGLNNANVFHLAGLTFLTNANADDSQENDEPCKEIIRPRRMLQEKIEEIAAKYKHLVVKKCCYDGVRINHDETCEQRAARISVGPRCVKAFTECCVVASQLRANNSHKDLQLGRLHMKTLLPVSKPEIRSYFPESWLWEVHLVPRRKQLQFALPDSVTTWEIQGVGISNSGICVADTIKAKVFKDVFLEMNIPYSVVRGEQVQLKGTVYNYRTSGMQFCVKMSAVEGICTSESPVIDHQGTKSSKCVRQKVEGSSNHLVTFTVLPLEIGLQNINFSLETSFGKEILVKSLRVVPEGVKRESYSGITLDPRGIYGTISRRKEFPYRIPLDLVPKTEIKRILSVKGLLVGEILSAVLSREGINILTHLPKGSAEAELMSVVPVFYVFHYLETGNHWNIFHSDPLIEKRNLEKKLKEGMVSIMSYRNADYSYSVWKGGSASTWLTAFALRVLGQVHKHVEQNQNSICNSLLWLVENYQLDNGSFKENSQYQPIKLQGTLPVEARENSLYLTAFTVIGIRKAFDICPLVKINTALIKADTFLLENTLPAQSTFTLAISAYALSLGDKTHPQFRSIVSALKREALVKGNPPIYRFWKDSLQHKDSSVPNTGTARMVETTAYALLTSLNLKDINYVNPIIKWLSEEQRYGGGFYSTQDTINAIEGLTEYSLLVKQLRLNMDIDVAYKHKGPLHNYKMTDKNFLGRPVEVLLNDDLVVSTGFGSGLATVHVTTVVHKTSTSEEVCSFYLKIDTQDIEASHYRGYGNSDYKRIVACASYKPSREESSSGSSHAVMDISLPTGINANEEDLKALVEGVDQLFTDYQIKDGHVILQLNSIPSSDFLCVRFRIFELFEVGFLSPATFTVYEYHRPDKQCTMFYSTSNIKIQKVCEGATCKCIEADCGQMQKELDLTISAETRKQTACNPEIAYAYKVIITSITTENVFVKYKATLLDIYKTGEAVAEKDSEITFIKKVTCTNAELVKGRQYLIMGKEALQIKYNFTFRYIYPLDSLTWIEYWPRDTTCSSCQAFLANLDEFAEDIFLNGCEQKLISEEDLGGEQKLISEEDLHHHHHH
Test: SPR (Biacore), mAb captured, dissociation of monkey C5 at pH7.4 vs pH6.0, 25°C
Record yes whenever t½ Ratio pH7.4/pH6.0 is at 3 or higher; record no when lower.

Confirm if t½ Ratio pH7.4/pH6.0 reported for the binder H4H12167P (antibody, human IgG4, V domains shown, H4H: human IgG4 Fc with S108P hinge mutation) VH: QVQLVESGGGLVKPGGSLRLSCAASGFTFSDSYMSWIRQAPGKGLEWISYIGSSGNTFYYADSVKGRFTISRDNANNLLYLQMTSLRAEDTAVYYCAREEGDFWSAVDSWGQGTLVTVSS VL: DIQLTQSPSFLSASVGDRVTITCWASQGISSYLAWYQQKPGKAPKLLIHTASTLQSGVPSRFSGSGSGTEFTLTISNLQPEDFATYYCQQLNSYPFTFGPGTKVDIK is 3 or above. yes

Tell me whether t½ Ratio pH7.4/pH6.0 is at least 3 here: H4H11686N (antibody, human IgG4, V domains shown, tested with H4H prefix (human IgG4 Fc with S108P hinge mutation); also called H2M11686N) VH: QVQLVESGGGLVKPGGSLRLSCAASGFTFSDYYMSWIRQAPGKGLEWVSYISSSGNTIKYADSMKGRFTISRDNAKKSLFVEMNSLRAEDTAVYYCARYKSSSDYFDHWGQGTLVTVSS VL: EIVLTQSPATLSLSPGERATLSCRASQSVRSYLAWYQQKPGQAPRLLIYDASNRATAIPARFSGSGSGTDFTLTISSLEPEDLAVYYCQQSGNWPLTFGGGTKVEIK no

Decide: is the reported value of t½ Ratio pH7.4/pH6.0 for H4H12169P (antibody, human IgG4, V domains shown, H4H: human IgG4 Fc with S108P hinge mutation) VH: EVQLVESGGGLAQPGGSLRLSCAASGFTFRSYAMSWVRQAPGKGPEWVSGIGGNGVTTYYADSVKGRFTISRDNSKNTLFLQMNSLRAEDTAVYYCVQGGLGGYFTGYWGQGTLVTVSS VL: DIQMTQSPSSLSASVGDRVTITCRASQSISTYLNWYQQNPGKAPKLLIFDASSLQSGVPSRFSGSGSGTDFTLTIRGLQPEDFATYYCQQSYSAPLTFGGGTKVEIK equal to or greater than 3? yes

Exam item: decide whether the reported t½ Ratio pH7.4/pH6.0 for H4H12164P (antibody, human IgG4, V domains shown, H4H: human IgG4 Fc with S108P hinge mutation) VH: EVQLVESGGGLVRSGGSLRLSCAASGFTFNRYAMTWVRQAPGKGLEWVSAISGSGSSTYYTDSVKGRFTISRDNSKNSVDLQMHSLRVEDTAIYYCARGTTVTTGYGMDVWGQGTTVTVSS VL: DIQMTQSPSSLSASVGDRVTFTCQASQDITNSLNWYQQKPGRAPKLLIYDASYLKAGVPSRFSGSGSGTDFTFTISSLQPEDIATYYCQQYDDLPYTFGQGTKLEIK is at least 3. no

I'd appreciate it if you could say whether H4H12159P (antibody, human IgG4, V domains shown, H4H: human IgG4 Fc with S108P hinge mutation) VH: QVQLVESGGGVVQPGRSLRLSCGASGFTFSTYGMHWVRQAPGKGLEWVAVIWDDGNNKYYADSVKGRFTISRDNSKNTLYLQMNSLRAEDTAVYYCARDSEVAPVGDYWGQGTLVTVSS VL: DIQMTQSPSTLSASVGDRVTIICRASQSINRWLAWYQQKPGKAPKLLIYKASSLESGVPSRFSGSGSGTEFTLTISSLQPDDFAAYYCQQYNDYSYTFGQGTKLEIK has t½ Ratio pH7.4/pH6.0 at least equal to 3. no

Does H4H12171P (antibody, human IgG4, V domains shown, H4H: human IgG4 Fc with S108P hinge mutation) VH: EVQLVESGGGVVRPGGSLRLSCAASGFTFDEYGMTWVRQVPGKGLEWVSGITWNGGFTDYTDSVKGRFTSSRDNAKNSLYLQMNSLRAEDTALYYCARDGYSSSWGAYDIWGQGTMVTVSS VL: DIQMTQSPSSLSASVGDRVTITCRASQSISTYLNWYQQKPGKAPKLLIYAASSLQSGVPLRFSGSGSGTDFTLTISSLQPEDFASYFCQQSYSTPYTFGQGTKLEIK have a reported t½ Ratio pH7.4/pH6.0 of at least 3? no

Is it the case that H4H12163P (antibody, human IgG4, V domains shown, H4H: human IgG4 Fc with S108P hinge mutation) VH: EVQLVESGGDLVQPGGSLRLSCAASGFTFSSYAMNWVRQGPGKGLEWVSAISGRGDSTYYADSVKGRLTISRDNSKNTLYLQMNSLRAEDTAVYYCVKEGEQLVYWYFDLWGRGTLVTVSS VL: DIQMTQSPSSLSASVGDRVTITCRASQTISNFLHWYQQKPGKAPKLLIYAASSLQSGVPSRFSGSGSGTDFTLTISSLQPEDFSTYFCQQSYTTPLTFGGGTKVEIK has t½ Ratio pH7.4/pH6.0 reaching or exceeding 3? yes

Decide: is the reported value of t½ Ratio pH7.4/pH6.0 for H4H12170P (antibody, human IgG4, V domains shown, H4H: human IgG4 Fc with S108P hinge mutation) VH: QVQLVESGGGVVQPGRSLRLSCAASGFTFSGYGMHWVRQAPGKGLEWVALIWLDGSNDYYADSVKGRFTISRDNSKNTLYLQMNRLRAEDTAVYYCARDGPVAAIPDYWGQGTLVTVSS VL: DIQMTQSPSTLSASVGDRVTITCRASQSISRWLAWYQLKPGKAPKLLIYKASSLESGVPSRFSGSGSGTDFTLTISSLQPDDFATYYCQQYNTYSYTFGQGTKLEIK equal to or greater than 3? no
